Test system: Staphylococcus aureus
protocol text: Antibacterial activity against methicillin-resistant Staphylococcus aureus clinical isolate M-15 incubated for 14 hrs by two-fold serial dilution method
Type: functional

mol | MIC / µg/mL
C[n+]1ccc2c3ccccc3n(CCCCCCCCCn3c4ccccc4c4cc[n+](C)cc43)c2c1.[I-].[I-] | 4
C[n+]1ccc2c3ccccc3n(CCCCCCCCCCCn3c4ccccc4c4cc[n+](C)cc43)c2c1.[I-].[I-] | 0.5
C[n+]1ccc2c3ccccc3n(CCCCCCCCCCCCn3c4ccccc4c4cc[n+](C)cc43)c2c1.[I-].[I-] | 1
C[n+]1ccc2c3ccccc3n(CCCCCCCCCCn3c4ccccc4c4cc[n+](C)cc43)c2c1.[I-].[I-] | 2
